# pIC50 per record follows
molecular target: PDE(IV); assay: Phosphodiesterase IV (PDE (IV)) Inhibitory Activity; settings: rat brain PDE(IV); 3H-cAMP 1 μM; 37° C., 10 minutes; read-out: PDE(IV) inhibition IC50
pIC50: −log10 of the molar value.
measurement type: pIC50

1. COc1ccc(-c2nc3cc(-n4cncn4)ccc3[nH]2)cc1OCC1CC1 :: 5.80
2. COc1ccc(-c2nc3cc(-n4cncn4)ccc3[nH]2)cc1OC1C=CCCCC1 (centres unmarked) :: 6.14
3. COc1ccc(-c2nc3cc(-n4cncn4)ccc3[nH]2)cc1OC/C=C/c1ccccc1 :: 7.29
4. COc1ccc(-c2nc3ccc(-n4cncn4)cc3[nH]2)cc1OC(C)C :: 7.70
5. COc1ccc(-c2nc3ccc(-n4cncn4)cc3[nH]2)cc1OC1C=CCCC1 (centres unmarked) :: 6.27

----------
test system: IL-4 production by CD4^+ T cells; assay: Interleukin-4 (IL-4) Production Inhibitory Activity; format: cell-based; settings: 24 h; mouse spleen CD4^+ T cells; IL-4 in supernatant by ELISA after 1 day; read-out: IL-4 production inhibition IC50
pIC50: −log10 of the molar value.
measurement type: pIC50

1. COc1ccc(-c2nc3cc(-n4cncn4)ccc3[nH]2)cc1OC/C=C/c1ccccc1 :: 5.29
2. COc1ccc(-c2nc3ccc(-n4cncn4)cc3[nH]2)cc1OC(C)C :: 5.37
3. COc1ccc(-c2nc3ccc(-n4cncn4)cc3[nH]2)cc1OC1C=CCCC1 (centres unmarked) :: 5.21
4. COc1ccc(-c2nc3cc(-n4cncn4)ccc3[nH]2)cc1OC1C=CCCCC1 (centres unmarked) :: 5.55
5. COc1ccc(-c2nc3cc(-n4cncn4)ccc3[nH]2)cc1OCC1CC1 :: 5.26
